# system-tested: glucocerebrosidase (Gcase) (Homo sapiens, UniProt P04062)
# Sequence (P04062 40-536): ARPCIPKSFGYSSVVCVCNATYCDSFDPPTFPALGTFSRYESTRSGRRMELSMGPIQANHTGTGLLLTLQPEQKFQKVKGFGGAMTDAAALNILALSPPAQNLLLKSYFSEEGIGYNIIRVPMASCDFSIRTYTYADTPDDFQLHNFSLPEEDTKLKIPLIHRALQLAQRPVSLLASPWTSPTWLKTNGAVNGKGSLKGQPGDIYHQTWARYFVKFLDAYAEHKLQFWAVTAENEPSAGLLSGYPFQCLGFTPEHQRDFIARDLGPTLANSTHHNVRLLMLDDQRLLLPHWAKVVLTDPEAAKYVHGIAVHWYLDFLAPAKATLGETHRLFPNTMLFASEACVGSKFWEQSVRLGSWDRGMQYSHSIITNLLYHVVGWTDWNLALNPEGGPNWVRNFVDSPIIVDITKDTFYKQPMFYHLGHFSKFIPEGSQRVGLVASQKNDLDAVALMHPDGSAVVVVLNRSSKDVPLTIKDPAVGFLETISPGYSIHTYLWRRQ
# assay-notes: Glucocerebrosidase (Gcase) activation assay, 4-methylumbelliferyl-beta-D-glucopyranoside substrate, fluorescence
# Type: biochemical
# condition-set: 0.25 h, pH 4.7, test compound at 0.1 μM, 10 nM GCase, 100 nM saposin C, read-out: Percent Gcase Activation 0.1 μM Test Compound
observed-property: activation at 0.1 µM

| molecule | activation at 0.1 µM |
| --- | --- |
| CCCO[C@H]1CC[C@H](NC(=O)c2ccn3c(C)cc(C(F)F)nc23)CC1 | 10 to 20% |
| Cc1cc(C)n2c(F)cc(C(=O)N[C@@H](C)C3CC3)c2n1 | 10 to 20% |
| Cc1cc(C)n2ccc(C(=O)NC(C)(C)c3cccc4ccccc34)c2n1 | > 20% |
| Cc1cc(C)n2ccc(C(=O)NC(C)c3ccccc3C)c2n1 (stereo not drawn) | > 20% |
| CCCCO[C@H]1CC[C@H](NC(=O)c2ccn3c(C)cc(-c4cccnc4)nc23)CC1 | > 20% |
| CCC(CO)(NC(=O)c1ccn2c(C)cc(C)nc12)c1ccccc1 (stereo not drawn) | < 10% |

Asked: Note down activation at 0.1 µM recorded for Cc1cc(Br)nc2c(C(=O)NC(C)(C)C3CC3)ccn12
Given back: 10 to 20%

Asked: Note down activation at 0.1 µM recorded for Cc1cc(C)n2ccc(C(=O)NC(C)c3cccc(-n4cccn4)c3)c2n1 (stereo not drawn)
Given back: 10 to 20%

Asked: Note down activation at 0.1 µM recorded for Cc1cc(-c2ccc(F)cc2)nc2c(C(=O)N[C@@H](C)C3CC3)ccn12
Given back: > 20%

----------
# assay-notes: Compound solubility in water
# Type: physicochemical
observed-property: solubility (µg/mL)

Answered cases to consult:
| compound-string | output-unit | solubility |
| --- | --- | --- |
| Cc1cc(C)n2ccc(C(=O)NC(C)(C)c3cccc4ccccc34)c2n1 | µg/mL | 0.6 |
| Cc1cc(C)n2ccc(C(=O)NC3(C4CC4)CC3)c2n1 | µg/mL | 21.4 |
| Cc1cc(C(F)F)n2ccc(C(=O)N[C@H]3CC[C@H](OC(C)(C)C)CC3)c2n1 | µg/mL | 0.9 |

1. Cc1cc(C)n2ccc(C(=O)N[C@H](C)c3ccc(Cl)cc3)c2n1
2. Cc1nc2c(C(=O)N[C@H]3CC[C@H](OC(C)(C)C)CC3)ccn2c2c1CCC2
Asked: Dear colleague, could you let me know whether 1 or 2 has the lower recorded solubility? Thanks. Kindly give the label for the entry you pick.
Given back: 1
(1: 0.6 µg/mL, 2: 1.5 µg/mL)
